assay-method-text: Biodistribution of 177Lu-labeled αMSH analogues in mice bearing B16F10 mouse melanoma
Type: in vivo, C57BL/6J mice
reported-conditions: mouse, urine, iv, total radioactivity; 4 h p.i., C57BL/6J mice, B16F10 melanoma
Lab note: compare excreta dose per gram or mL at 4 h against 20 %ID/g. Equal or greater, write fulfilled. Smaller, write not fulfilled.

Completed entries (count: 5):
Enquiry: Entry CCCC[C@H](NC(=O)CN1CCC(NC(=O)CN2CCN(CC(=O)O)CCN(CC(=O)O)CCN(CC(=O)O)CC2)CC1)C(=O)N[C@H]1CC(=O)NCCCC[C@@H](C(N)=O)N(C)C(=O)[C@H](Cc2c[nH]c3ccccc23)NC(=O)[C@H](CCCNC(=N)N)N(C)C(=O)[C@@H](Cc2ccccc2)NC(=O)[C@H](Cc2c[nH]cn2)NC1=O [^177Lu-labeled CCZ01106, metal not drawn] : is its excreta dose per gram or mL at 4 h no less than 20 %ID/g?
Return: not fulfilled

Enquiry: One more compound: CCCC[C@H](NC(=O)CN1CCC(NC(=O)[C@H](CCCCNC(=O)CN2CCN(CC(=O)O)CCN(CC(=O)O)CCN(CC(=O)O)CC2)NC(=O)[C@H](CCC(=O)O)NC(=O)CCCc2ccc(I)cc2)CC1)C(=O)N[C@H]1CC(=O)NCCCC[C@@H](C(N)=O)N(C)C(=O)[C@H](Cc2c[nH]c3ccccc23)N(C)C(=O)[C@H](CCCNC(=N)N)N(C)C(=O)[C@@H](Cc2ccccc2)NC(=O)[C@H](Cc2c[nH]cn2)N(C)C1=O [^177Lu-labeled CCZ01088, metal not drawn]
Return: fulfilled

Enquiry: One more compound: CCCC[C@H](NC(=O)CN1CCC(NC(=O)CN2CCN(CC(=O)O)CCN(CC(=O)O)CCN(CC(=O)O)CC2)CC1)C(=O)N[C@H]1CC(=O)NCCCC[C@@H](C(N)=O)NC(=O)[C@H](Cc2c[nH]c3ccccc23)NC(=O)[C@H](CCCNC(=N)N)NC(=O)[C@@H](Cc2ccccc2)NC(=O)[C@H](Cc2c[nH]cn2)NC1=O [^177Lu-labeled CCZ01048, metal not drawn, reference compound]
Return: not fulfilled

Enquiry: One more compound: CCCC[C@H](NC(=O)CN1CCC(NC(=O)CN2CCN(CC(=O)O)CCN(CC(=O)O)CCN(CC(=O)O)CC2)CC1)C(=O)N[C@H]1CC(=O)NCCCC[C@@H](C(N)=O)N(C)C(=O)[C@H](Cc2c[nH]c3ccccc23)N(C)C(=O)[C@H](CCCNC(=N)N)N(C)C(=O)[C@@H](Cc2ccccc2)NC(=O)[C@H](Cc2c[nH]cn2)N(C)C1=O [^177Lu-labeled CCZ01099, metal not drawn]
Return: fulfilled

Enquiry: One more compound: CCCC[C@H](NC(=O)CN1CCC(NC(=O)[C@H](CCCCNC(=O)CN2CCN(CC(=O)O)CCN(CC(=O)O)CCN(CC(=O)O)CC2)NC(=O)[C@H](CCC(=O)O)NC(=O)CCCc2ccc(I)cc2)CC1)C(=O)N[C@H]1CC(=O)NCCCC[C@@H](C(N)=O)NC(=O)[C@H](Cc2c[nH]c3ccccc23)NC(=O)[C@H](CCCNC(=N)N)NC(=O)[C@@H](Cc2ccccc2)NC(=O)[C@H](Cc2c[nH]cn2)NC1=O [^177Lu-labeled CCZ01082, metal not drawn]
Return: fulfilled

Now look at this one.
Enquiry: Entry CCCC[C@H](NC(=O)CN1CCC(NC(=O)[C@H](CCCCNC(=O)CN2CCN(CC(=O)O)CCN(CC(=O)O)CCN(CC(=O)O)CC2)NC(=O)[C@H](CCC(=O)O)NC(=O)CCCc2ccc(I)cc2)CC1)C(=O)N[C@H]1CC(=O)NCCCC[C@@H](C(N)=O)N(C)C(=O)[C@H](Cc2c[nH]c3ccccc23)NC(=O)[C@H](CCCNC(=N)N)N(C)C(=O)[C@@H](Cc2ccccc2)NC(=O)[C@H](Cc2c[nH]cn2)NC1=O [^177Lu-labeled CCZ01118, metal not drawn] : is its excreta dose per gram or mL at 4 h no less than 20 %ID/g?
Return: fulfilled

This collection of values is drawn from patent US11395857B2.
